B1: NET1 (parent)
chain: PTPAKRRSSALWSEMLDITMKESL

- Variants of: B1
- PROCEDURE_TEXT: protein stability index of a GFP-peptide fusion (GPS, HEK-293T) (PSI 1-6); higher = more stable;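 also: lentivirally expressed fusions sorted by FACS into six bins by GFP to DsRed ratio, PSI derived from sequencing read proportions per bin multiplied by bin number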
- RUN_PARAMETERS: c terminus: a fixed tail appended
REPORTED_ENDPOINT: protein stability index
The answer should be a number; do not append a unit.

# query: protein stability index of entry PTPAKRRSSALMSEMLDITMKESL [W12M]
3.51

# query: protein stability index of entry PTPAKRRSSCLWSEMLDITMKESL [A10C]
2.18

# query: protein stability index of entry PTPAKRRSSALWSEMLDRTMKESL [I18R]
2.84

# query: protein stability index of entry PTPAKLRSSALWSEMLDITMKESL [R6L]
1.99

# query: protein stability index of entry PTPAKRRSSALWSEMMDITMKESL [L16M]
2.2

# query: protein stability index of entry PTPNKRRSSALWSEMLDITMKESL [A4N]
2.07

# query: protein stability index of entry PTPAKRRSSALWSEMLDITMKESW [L24W]
1.36

# query: protein stability index of entry PTPAKRRSSALQSEMLDITMKESL [W12Q]
4.46

# query: protein stability index of entry PTPAKRRSSALWSEMLDITMKEDL [S23D]
1.93

# query: protein stability index of entry PTPAKRRSSALWSEMLDITMKESM [L24M]
2.28

# query: protein stability index of entry PTPCKRRSSALWSEMLDITMKESL [A4C]
1.47

# query: protein stability index of entry PTPAKRRSSALWSEMLRITMKESL [D17R]
2.27

# query: protein stability index of entry PTPAKWRSSALWSEMLDITMKESL [R6W]
1.99

# query: protein stability index of entry PTPAKRRSSALWSEMTDITMKESL [L16T]
2.85

# query: protein stability index of entry PTPFKRRSSALWSEMLDITMKESL [A4F]
2.03

# query: protein stability index of entry PTPAKRRSSALWSEMLDVTMKESL [I18V]
3.12

# query: protein stability index of entry PTPAKRRSSALWSEMLYITMKESL [D17Y]
2.83

# query: protein stability index of entry PTTAKRRSSALWSEMLDITMKESL [P3T]
2.21

# query: protein stability index of entry PTPAKRRSCALWSEMLDITMKESL [S9C]
1.47

# query: protein stability index of entry PTPAKRRSSALWSEMADITMKESL [L16A]
2.59

# query: protein stability index of entry PVPAKRRSSALWSEMLDITMKESL [T2V]
2.54

# query: protein stability index of entry PAPAKRRSSALWSEMLDITMKESL [T2A]
2.93

# query: protein stability index of entry PTPAKIRSSALWSEMLDITMKESL [R6I]
1.84

# query: protein stability index of entry PTPAKRASSALWSEMLDITMKESL [R7A]
2.61

# query: protein stability index of entry PTPAKRRSSALWSEMLDITMKESF [L24F]
1.89

# query: protein stability index of entry PTPAKRRSSALWSEMLDITMKEPL [S23P]
2.63

# query: protein stability index of entry PTPAKRRSSALWSTMLDITMKESL [E14T]
1.93

# query: protein stability index of entry PTSAKRRSSALWSEMLDITMKESL [P3S]
2.17

# query: protein stability index of entry PTKAKRRSSALWSEMLDITMKESL [P3K]
2.44

# query: protein stability index of entry PTPAKRRSSALWSEELDITMKESL [M15E]
4.77

# query: protein stability index of entry PTPAKRRSSALWSEMLDITMKEIL [S23I]
1.89

# query: protein stability index of entry PTPAKRRSSAQWSEMLDITMKESL [L11Q]
2.27

# query: protein stability index of entry PTPAKRRSSALWSEMLDITTKESL [M20T]
2.76

# query: protein stability index of entry PTPSKRRSSALWSEMLDITMKESL [A4S]
1.73

# query: protein stability index of entry PTPAKRRSSALWSEMLDITMKESG [L24G]
2.47

# query: protein stability index of entry PGPAKRRSSALWSEMLDITMKESL [T2G]
2.06

# query: protein stability index of entry PTPAKRRSSALWSEMLAITMKESL [D17A]
1.95

# query: protein stability index of entry PTPAKRRSSALWSEMLDITMKEGL [S23G]
2.33

# query: protein stability index of entry PTPAKRRSEALWSEMLDITMKESL [S9E]
2.4

# query: protein stability index of entry PTPAKRRSSFLWSEMLDITMKESL [A10F]
2.02

# query: protein stability index of entry PTPAKRRSSALWSEMLDIQMKESL [T19Q]
1.93

# query: protein stability index of entry PTPAKRRSSALWSEMLDIDMKESL [T19D]
2.37

# query: protein stability index of entry STPAKRRSSALWSEMLDITMKESL [P1S]
1.45

# query: protein stability index of entry PTPAKRRSSALWSEDLDITMKESL [M15D]
3.91

# query: protein stability index of entry PTPAKRRSSALWSEMLDITFKESL [M20F]
1.88

# query: protein stability index of entry PTPAKRRSSALWSEKLDITMKESL [M15K]
2.82

# query: protein stability index of entry PTPAKRRSSALWSEMLDITMTESL [K21T]
2.21

# query: protein stability index of entry PTPAKRRSSALWSEMLDIGMKESL [T19G]
2.36

# query: protein stability index of entry PTPAKRRSSALWSEMLDIRMKESL [T19R]
1.81

# query: protein stability index of entry PTPAKRRSSALWSEMLDITMKEQL [S23Q]
2.47

# query: protein stability index of entry PTPAKRRKSALWSEMLDITMKESL [S8K]
2.96

# query: protein stability index of entry PTPAKRRSSALWSEMLDITMKEEL [S23E]
2.14

# query: protein stability index of entry PTPAKRRSSALWSEMLDATMKESL [I18A]
2.12

# query: protein stability index of entry NTPAKRRSSALWSEMLDITMKESL [P1N]
2.33

# query: protein stability index of entry PTHAKRRSSALWSEMLDITMKESL [P3H]
2.05

# query: protein stability index of entry PTPAKRRSSMLWSEMLDITMKESL [A10M]
2.14

# query: protein stability index of entry PTPAKRNSSALWSEMLDITMKESL [R7N]
2.85

# query: protein stability index of entry PTPAKRRSSALWHEMLDITMKESL [S13H]
2.88

# query: protein stability index of entry PTPAKRRSSALWSEMLDETMKESL [I18E]
2.9

# query: protein stability index of entry PTPAKRRSSVLWSEMLDITMKESL [A10V]
1.58

# query: protein stability index of entry PTPAKRRSSALWSRMLDITMKESL [E14R]
2.43

# query: protein stability index of entry PTPAKRRSSALWSFMLDITMKESL [E14F]
1.58

# query: protein stability index of entry PTPAKRRSSALWSEMLDITMKMSL [E22M]
2.6

# query: protein stability index of entry PTPAKRRSSAFWSEMLDITMKESL [L11F]
1.98

# query: protein stability index of entry PTPAKRRSSAKWSEMLDITMKESL [L11K]
1.62

# query: protein stability index of entry PTPGKRRSSALWSEMLDITMKESL [A4G]
2.3

# query: protein stability index of entry PTPAKRRSSALWSEMLDITIKESL [M20I]
2.09

# query: protein stability index of entry PTPAKRRRSALWSEMLDITMKESL [S8R]
1.65

# query: protein stability index of entry CTPAKRRSSALWSEMLDITMKESL [P1C]
1.75

# query: protein stability index of entry PTPAKRRSSACWSEMLDITMKESL [L11C]
2.2

# query: protein stability index of entry PTPAKRRSSALWSKMLDITMKESL [E14K]
2.87

# query: protein stability index of entry PTPAKRRSSALWSEMLDITMIESL [K21I]
2.06

# query: protein stability index of entry PTPAKRRSSALWSEMLDITMKEKL [S23K]
2.79

# query: protein stability index of entry MTPAKRRSSALWSEMLDITMKESL [P1M]
1.72

# query: protein stability index of entry PTPAKRRSSALWSEMNDITMKESL [L16N]
3.84

# query: protein stability index of entry PTPAKRRSSALWSEMLDITMKESI [L24I]
2.29

# query: protein stability index of entry ITPAKRRSSALWSEMLDITMKESL [P1I]
2.07

# query: protein stability index of entry PTPAKRPSSALWSEMLDITMKESL [R7P]
1.96

# query: protein stability index of entry PTPAKRRSSALWSEMLDITVKESL [M20V]
2.73

# query: protein stability index of entry PTPAKRRSSALWSEMHDITMKESL [L16H]
2.85

# query: protein stability index of entry PTPAKRRSSALWSEMEDITMKESL [L16E]
3.67

# query: protein stability index of entry PTPMKRRSSALWSEMLDITMKESL [A4M]
2.07

# query: protein stability index of entry PTPAKRRSSALWKEMLDITMKESL [S13K]
2.34

# query: protein stability index of entry PTPAKRDSSALWSEMLDITMKESL [R7D]
3.36

# query: protein stability index of entry PTPAKRRSSALWQEMLDITMKESL [S13Q]
1.12
